The reported numbers originate from ChEMBL document CHEMBL1154080.

Assayed target: Cholecystokinin receptor type A (Rattus norvegicus)
Sequence (P30551 whole entry): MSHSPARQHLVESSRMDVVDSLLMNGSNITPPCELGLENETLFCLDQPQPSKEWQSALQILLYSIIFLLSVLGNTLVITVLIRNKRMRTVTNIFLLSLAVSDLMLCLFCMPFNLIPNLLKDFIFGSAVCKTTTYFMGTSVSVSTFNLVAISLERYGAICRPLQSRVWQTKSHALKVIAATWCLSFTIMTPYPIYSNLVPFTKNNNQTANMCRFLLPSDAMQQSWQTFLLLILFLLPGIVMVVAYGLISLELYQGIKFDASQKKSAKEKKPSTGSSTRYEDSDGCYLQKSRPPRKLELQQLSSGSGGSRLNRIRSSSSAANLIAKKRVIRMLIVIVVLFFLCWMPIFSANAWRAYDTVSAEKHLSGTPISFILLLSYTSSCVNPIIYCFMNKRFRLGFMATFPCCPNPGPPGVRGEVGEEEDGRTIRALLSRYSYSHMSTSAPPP
Assay details: Displacement of [125I]-CCK8 from CCK1 receptor in rat pancreatic acinar cells
Can you tell me pIC50 for the items I'm about to list?
Lab note: report pIC50 as minus log10 of the concentration in molar units, number only.

Input line: Form field: reported pIC50 of O=C(Nc1ccccc1C(=O)NC(Cc1ccccc1)C(=O)O)c1cc2cc([N+](=O)[O-])ccc2[nH]1 (racemic)
Output line: 5.45

Input line: Can you share its pIC50? I mean this compound: Cc1ccc2[nH]c(C(=O)Nc3ccccc3C(=O)NC(Cc3ccccc3)C(=O)O)cc2c1 (racemic)
Output line: 5.55

Input line: Which measured pIC50 value corresponds to O=C(Nc1ccccc1C(=O)N[C@H](Cc1ccccc1)C(=O)O)c1cc2cccc(F)c2[nH]1 ?
Output line: 7.26

Input line: Returns the measured pIC50 for the input compound. Input: O=C(Nc1ccccc1C(=O)NC(Cc1ccccc1)C(=O)O)c1cc2cc(F)ccc2[nH]1 (racemic)
Output line: 6.50

Input line: Which measured pIC50 value corresponds to Cc1c(C(=O)Nc2ccccc2C(=O)NC(Cc2ccccc2)C(=O)O)[nH]c2ccccc12 (racemic) ?
Output line: 5.69

====

Assayed target: UniProtKB P30551
Assay details: Displacement of [125I]-CCK8 from CCK1 receptor in rat pancreatic acinar cells
Assay endpoint: pIC50
Scale: negative log10 of molar concentration, which is what pIC50 denotes.

Input line: Which pIC50 value belongs to Cn1c(C(=O)Nc2ccccc2C(=O)NC(Cc2ccccc2)C(=O)O)cc2cc([N+](=O)[O-])ccc21 (racemic) ?
Output line: 5.96

Input line: What does the data say about its pIC50? Entry: O=C(Nc1ccccc1C(=O)NC(Cc1ccccc1)C(=O)O)c1cc2cc(Cl)ccc2[nH]1 (racemic)
Output line: 5.73

Input line: Fill blank: measured pIC50 of the compound O=C(Nc1ccccc1C(=O)NC(Cc1ccccc1)C(=O)O)c1cc2ccccc2o1 (racemic) is ____.
Output line: 6.05

Input line: Item O=C(Nc1ccccc1C(=O)NC(Cc1ccccc1)C(=O)O)c1cccs1 (racemic) has what recorded pIC50?
Output line: 5.59

====

Assayed target: Cholecystokinin receptor type A (Rattus norvegicus, UniProt P30551)
Assay details: Displacement of [125I]-CCK8 from CCK1 receptor in rat pancreatic acinar cells
Record form. Attribute: pIC50. Fill in for each entry.
Expect pIC50 as a plain number equal to -log10 of the molar concentration.

Input line: Which pIC50 value belongs to O=C(NC(Cc1ccccc1)C(=O)O)c1ccccc1NC(=O)c1nccc2ccccc12 (racemic) ?
Output line: 4.88

Input line: If you can, please state the reported pIC50 value of O=C(Nc1ccccc1C(=O)NC(Cc1ccccc1)C(=O)O)c1cc2ccc(F)cc2[nH]1 (racemic) .
Output line: 6.53

Input line: Fill in: pIC50 of O=C(Nc1ccccc1C(=O)N[C@@H](Cc1ccccc1)C(=O)O)c1cc2cccc(F)c2[nH]1 is ___
Output line: 5.45

Input line: Sample Cc1cccc2cc(C(=O)Nc3ccccc3C(=O)NC(Cc3ccccc3)C(=O)O)[nH]c12 (racemic) — what was its pIC50?
Output line: 6.17
